Where do the numbers come from? From the supplement of paper PMC7125110.

Hi there, I'd appreciate the recorded self-cleavage kobs at 2500 uM GlcN6P for every entry that follows.
B1: glmS ribozyme (parent)
chain: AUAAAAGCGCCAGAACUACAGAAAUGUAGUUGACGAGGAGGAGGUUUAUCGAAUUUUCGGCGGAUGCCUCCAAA

# Variants of: B1
# method: self-cleavage kobs at 2500 uM GlcN6P; higher = faster cleavage; RNA array
# run conditions: with glucosamine-6-phosphate
Variants at the floor of the assay were thinned out.
// units = s⁻¹; emit number, no label

Which value of self-cleavage kobs at 2500 uM GlcN6P has been reported for U69C C71G in the records?
7.01e-05

Which value of self-cleavage kobs at 2500 uM GlcN6P has been reported for C11U C16A in the records?
0.000106

Which value of self-cleavage kobs at 2500 uM GlcN6P has been reported for G29C G51U C67G in the records?
5.96e-05

Which value of self-cleavage kobs at 2500 uM GlcN6P has been reported for U2C A53C in the records?
0.00726

Which value of self-cleavage kobs at 2500 uM GlcN6P has been reported for A12U A14U G66A in the records?
0.000704
